Origin of values: patent US20110165161A1

System: Prostate cancer LNCaP cells
Test: Antibody cytotoxicity assay (Annexin V + PI), LNCaP
Format: cell-based
Details: 1, 3 and 10 μg/ml, overnight
Method: After a 17-20 hr incubation at 37° C., cells were stained with 0.3 μl of FITC-conjugated Annexin V (Strong Biotech Corp. Cat. No. AVK250) in 50 μl Annexin V binding buffer (Strong Biotech Corp. Cat. No. AVK250) at RT for 20 min. After wash, the cells were then stained with 0.3 μl of propidium iodide in 200 μl Annexin V binding buffer. […] The data were acquired with BD FACSCalibur based on an acquisition of 3,000-5,000 cells and analyzed with the Cell Quest software. […]
Measured attribute: Induction of cell death (in words)

Molecule | Reported
4D2: murine anti-human EpCAM monoclonal antibody (IgG1, K), hybridoma m338-4D2.20; VH SEQ ID NO:19, VL SEQ ID NO:21 (antibody, listed as Mus musculus, V domains shown) VH: EVQLVESGGDLVKPGGSLKLSCAASGFAFDSYGMSWVRQTPGKRLEWVATISSGGYYTYYQDSVKGRFTTSRDNAKNTLDLQMSSLKSEDSAIYYCARRGNYDVDYYAMDYWGQGTSVTVSS VL: DVVMTQTPLSLPVSLGDQASISCRSSQSLVHSNGNTYLHWYLQKPGQSPKLLIYKVSNRFSGVPDRFSGSGSGTDFTLRISRVEAEDLGVYFCSQSTHVPPWTFGGGTKLEIKR | substantial cell death
1F10: murine anti-human EpCAM monoclonal antibody (IgG1, λ1), hybridoma m338-1F10.3; VH SEQ ID NO:11, VL SEQ ID NO:13 (antibody, listed as Mus musculus, V domains shown) VH: EVKLLESGGGLVQPGGSLKLSCAASGFDFSRYWMSWVRQAPGKGLEWIGEINPDSSTMNYTPSLKDKFIISRDNAKNTLYLQMSKVRSEDTALYYCARGAYAMDYWGQGTSVTVSS VL: QAVVTQESALTTSPGETVTLTCRSSTGAVTTSNNANWVQEKPDHLFTGLIGATNNRAPGVPARFSGSLIGDKAALTITGAQTEDEAIYFCALWYINHWVFGGGTKLTVLG | substantial cell death
